Values were extracted from patent US20050282743A1.

molecular target: GST-PAR3 PDZ domain 3 (Homo sapiens (Human)), Q8TEW0; assay: G assay titration, PDZ 1 ug/ml
Sequence (Q8TEW0 579-681): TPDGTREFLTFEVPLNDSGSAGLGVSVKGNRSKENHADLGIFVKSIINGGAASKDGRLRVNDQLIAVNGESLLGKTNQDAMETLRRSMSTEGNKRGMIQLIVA
Observable: pKd
// pKd here means minus log10 of the molar concentration (mol/L)

State the recorded pKd for this entry: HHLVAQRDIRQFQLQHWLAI (modifications not checked) [noradrenaline transporter] 6.22
